Hey, just so you know, these numbers are from ChEMBL document CHEMBL1147539.

measured.on: Glucocorticoid receptor (Homo sapiens)
Sequence (P04150 whole entry): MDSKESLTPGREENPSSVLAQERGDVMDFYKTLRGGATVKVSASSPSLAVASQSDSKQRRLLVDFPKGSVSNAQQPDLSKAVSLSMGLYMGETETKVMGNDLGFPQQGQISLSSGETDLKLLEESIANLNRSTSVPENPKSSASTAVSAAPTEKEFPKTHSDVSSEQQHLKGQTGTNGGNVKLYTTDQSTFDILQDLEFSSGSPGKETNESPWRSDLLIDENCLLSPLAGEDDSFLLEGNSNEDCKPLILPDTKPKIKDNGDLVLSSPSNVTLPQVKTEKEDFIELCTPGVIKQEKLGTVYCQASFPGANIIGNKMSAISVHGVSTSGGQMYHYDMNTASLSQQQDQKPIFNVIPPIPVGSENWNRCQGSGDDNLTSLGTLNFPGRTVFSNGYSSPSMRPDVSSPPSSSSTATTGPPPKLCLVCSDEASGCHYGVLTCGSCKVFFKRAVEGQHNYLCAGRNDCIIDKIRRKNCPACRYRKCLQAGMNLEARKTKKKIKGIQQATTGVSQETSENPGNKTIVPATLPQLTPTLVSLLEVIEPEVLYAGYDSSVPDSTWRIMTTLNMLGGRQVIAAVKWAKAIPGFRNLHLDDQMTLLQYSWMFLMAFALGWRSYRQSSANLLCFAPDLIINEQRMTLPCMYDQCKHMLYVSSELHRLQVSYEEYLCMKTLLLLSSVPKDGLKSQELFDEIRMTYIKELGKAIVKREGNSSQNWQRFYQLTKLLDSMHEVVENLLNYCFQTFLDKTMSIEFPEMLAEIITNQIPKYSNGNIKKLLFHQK
method.summary: Displacement of [3H]dexamethasone from human Glucocorticoid receptor (GR); Value ranges from 949-1169 nM
readout.type: IC50

compound: COc1cccc2c1-c1ccc(N(C)S(C)(=O)=O)cc1C(c1ccccc1)O2 (stereo unspecified)
measured.on: Glucocorticoid receptor (Homo sapiens)
result: 1050 nM

----------
measured.on: Glucocorticoid receptor (Homo sapiens, UniProt P04150)
method.summary: Displacement of [3H]dexamethasone from human Glucocorticoid receptor (GR); Value ranges from 9-12 nM
readout.type: IC50 (nM)

compound: COc1cccc2c1-c1ccc(NS(C)(=O)=O)cc1C(c1ccc(Cl)cc1)O2 (stereo unspecified)
unit.string: nM
recorded.number: 10

----------
measured.on: Glucocorticoid receptor (Homo sapiens)

compound: CS(=O)(=O)Nc1ccc2c(c1)C(c1ccccc1)Oc1cccc(-c3cccs3)c1-2 (stereo unspecified)
unit.string: nM
IC50: 656

----------
measured.on: Glucocorticoid receptor (Homo sapiens, UniProt P04150)
method.summary: Displacement of [3H]dexamethasone from human Glucocorticoid receptor (GR); Value ranges from 559-1423 nM
pIC50: −log10 of the molar value.

compound: CS(=O)(=O)Nc1ccc2c(c1)C(c1ccccc1)Oc1cccc(O)c1-2 (stereo unspecified)
measured.on: Glucocorticoid receptor (Homo sapiens, UniProt P04150)
pIC50: 6.05

----------
measured.on: Glucocorticoid receptor (Homo sapiens, UniProt P04150)
method.summary: Displacement of [3H]dexamethasone from human Glucocorticoid receptor (GR)
pIC50: −log10 of the molar value.

compound: CCCCCC1Oc2cccc(OC)c2-c2ccc(NS(C)(=O)=O)cc21 (stereo unspecified)
measured.on: Glucocorticoid receptor (Homo sapiens, UniProt P04150)
pIC50: 7.68
//
compound: COc1cccc2c1-c1ccc(NS(C)(=O)=O)cc1C(c1cc(C)cc(C)c1)O2 (stereo unspecified)
measured.on: Glucocorticoid receptor (Homo sapiens, UniProt P04150)
pIC50: 8.70
//
compound: COc1cccc2c1-c1ccc(NS(C)(=O)=O)cc1C(c1ccc(Oc3ccccc3)cc1)O2 (stereo unspecified)
measured.on: Glucocorticoid receptor (Homo sapiens, UniProt P04150)
pIC50: 7.20
//
compound: COc1cccc2c1-c1ccc(NS(C)(=O)=O)cc1C(c1cccc(C)c1)O2 (stereo unspecified)
measured.on: Glucocorticoid receptor (Homo sapiens, UniProt P04150)
pIC50: 9.00
//
compound: CNc1cccc(C2Oc3cccc(OC)c3-c3ccc(NS(C)(=O)=O)cc32)c1 (stereo unspecified)
measured.on: Glucocorticoid receptor (Homo sapiens, UniProt P04150)
pIC50: 7.64
//
compound: COc1cccc2c1-c1ccccc1C(c1ccccc1)O2 (stereo unspecified)
measured.on: Glucocorticoid receptor (Homo sapiens, UniProt P04150)
pIC50: 5.00
